# TESTED SYSTEM: T1, BMP-9 (UniProt Q9UK05 320-429)
# T1 construct: also called bone morphogenetic protein 9
# T1 sequence (looked up): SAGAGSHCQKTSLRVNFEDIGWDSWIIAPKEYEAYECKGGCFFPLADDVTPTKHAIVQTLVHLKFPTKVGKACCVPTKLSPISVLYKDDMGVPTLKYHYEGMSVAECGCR
# MEASUREMENT NOTES: SPR (Biacore 3000), receptor captured on chip, ligand in solution
pKd: −log10 of the molar value.
Decision: pKd compared against 8; not below it gives criterion met, below it gives criterion not met.

*Q* Given ActRIIa/b+ variant (SEQ ID NO: 150) (receptor, not shown: Fusion partner and its linker) GAILGRSETQECLFYNANWELERTNQTGVERCEGEKDKRLHCYATWRNISGSIEIVAKGCWLDDFNCYDRTDCVETEENPQVYFCCCEGNMCNEKFSYFPEMEVTQPTS , state whether its pKd is at least 8.
*A* criterion not met

*Q* Given ActRIIa/bmax1 variant (SEQ ID NO: 70) (receptor, Engineered extracellular ActRIIa variant; not shown: Carrier and linker) GAILGRSETQECLYYNANWELERTNQTGVERCEGEQDKRLHCYATWRNISGSIEIVKKGCWLDDFNCYDRTDCVETEENPQVYFCCCEGNMCNEKFSYFPEMEVTQPTS , state whether its pKd is at least 8.
*A* criterion met

*Q* Given ActRIIa/bΔ9m3 variant (SEQ ID NO: 41) (receptor, Engineered extracellular ActRIIa variant; not shown: Fusion partner and its linker) GAILGRSETQECLFYNANWELDRTNQTGVERCEGEKDKRLHCFATWRNISGSIEIVKKGCWLDDFNCYDRTDCVETKENPQVYFCCCEGNMCNEKFSYFPEMEVTQPTS , state whether its pKd is at least 8.
*A* criterion met

*Q* Given ActRIIa/bmax2 variant (SEQ ID NO: 71) (receptor, not shown: Carrier and linker) GAILGRSETQECLFYNANWELERTNQTGVERCEGEKDKRLHCYATWRNISGSIEIVKKGCWLDDFNCYDRTDCVETEENPQVYFCCCEGNMCNEKFSYFPEMEVTQPTSNP , state whether its pKd is at least 8.
*A* criterion met

*Q* Given ActRIIa/bmax3 variant (SEQ ID NO: 72) (receptor, not shown: Carrier and linker) GAILGRSETQECLFYNANWELERTNQTGVERCEGEKDKRLHCYATWRNISGSIEIVKKGCWLDDFNCYDRTDCVETEENPQVYFCCCEGNMCNEKFSYFPEMEVTQPTSNPVTPK , state whether its pKd is at least 8.
*A* criterion met

*Q* Given ActRIIa/b variant (SEQ ID NO: 69) (receptor, Engineered extracellular ActRIIa variant; not shown: Carrier and linker) GAILGRSETQECLFYNANWELERTNQTGVERCEGEKDKRLHCYATWRNISGSIEIVKKGCWLDDFNCYDRTDCVETEENPQVYFCCCEGNMCNEKFSYFPEMEVTQPTS , state whether its pKd is at least 8.
*A* criterion met
